Form field: pKa (one value per entry).
- Applied conditions: basic group
Give the figure only, with no unit attached.

*Q* Query: pKa; subject: `Sc1cc2ccccc2cn1`
*A* 0.39

*Q* Query: pKa; subject: `O=Cc1cccc(C=O)n1`
*A* 1.92

*Q* Query: pKa; subject: `COc1ccc(-c2cnc(-c3ccc(C)cc3)o2)cc1`
*A* 1.26

Turning now to a further record.
*Q* Query: pKa; subject: `CCNCc1ccc(C)cc1`
*A* 10

====

- Applied conditions: basic group
Form field: pKa (one value per entry).
Give the figure only, with no unit attached.

*Q* Query: pKa; subject: `CN(C)Cc1cccc(O)c1O`
*A* 8.01

New cases:
*Q* Query: pKa; subject: `C=C(C)C(=O)OCCNCCCC`
*A* 9.12

*Q* Query: pKa; subject: `Cc1ccc(N)cc1Br`
*A* 4.02

*Q* Query: pKa; subject: NC(=S)C(N)Cc1ccccc1 (stereo not given)
*A* 7.15

*Q* Query: pKa; subject: `Cc1cccc(C)c1Oc1ccccn1`
*A* 2.26

*Q* Query: pKa; subject: `C[NH+](C)CCC/N=C(\c1ccccc1)c1ccc2ccccc2c1`
*A* 5.1

*Q* Query: pKa; subject: `CC[NH+](CC)CCNc1nc(C)cc(Nc2ccc(Cl)cc2)n1`
*A* 6.69

*Q* Query: pKa; subject: `CN1CCOCC1`
*A* 7.66

*Q* Query: pKa; subject: `NC/C=C/C(=O)[O-]`
*A* 9.46

*Q* Query: pKa; subject: CCN(CC)CCC(OC(=O)c1ccccc1)c1ccccc1 (stereo not given)
*A* 7.53

*Q* Query: pKa; subject: `c1ccc(-c2ccc3ncc(C[NH+]4CCOCC4)n3n2)cc1`
*A* 2.91

====

- Applied conditions: basic group
Measurement label: pKa
Give the figure only, with no unit attached.

Example compounds with recorded pKa:
*Q* Query: pKa; subject: `COc1ccc(OC)c2c1nc(CCl)n2C`
*A* 4.1

*Q* Query: pKa; subject: `CN(C)c1ncc2[nH]cnc2n1`
*A* 4.02

*Q* Query: pKa; subject: `c1ccc2[nH]c(-c3ccncc3)nc2c1`
*A* 10.8

New cases:
*Q* Query: pKa; subject: `O=Cc1ccncc1`
*A* 4.63

*Q* Query: pKa; subject: COc1cc(S(C)=O)ccc1-c1nc2nnccc2[nH]1 (configuration not stated)
*A* 3.63

*Q* Query: pKa; subject: `CCCCNCC(=O)[O-]`
*A* 10.2

*Q* Query: pKa; subject: `CC(C)(S)CN`
*A* 8.48

*Q* Query: pKa; subject: `Nc1nc[nH+]c(N)c1N`
*A* 1.47

*Q* Query: pKa; subject: Oc1ccc(C2NCCS2)cc1 (configuration not stated)
*A* 5.5

*Q* Query: pKa; subject: `C[NH2+]CCN`
*A* 7.49

*Q* Query: pKa; subject: `Nc1nccc(-c2csc(N)[nH+]2)n1`
*A* 2.6

*Q* Query: pKa; subject: `CC(C)(C)N1NC2CCC1CC2`
*A* 9.54

====

Form field: pKa (one value per entry).
- Applied conditions: basic group

*Q* Query: pKa; subject: `CN1CC[C@]23c4c5ccc(O[C@@H]6O[C@H](C(=O)[O-])[C@@H](O)[C@H](O)[C@H]6O)c4O[C@H]2[C@@H](O)C=C[C@H]3[C@H]1C5`
*A* 8.1

*Q* Query: pKa; subject: N/C(CC(N)c1ccccc1)=N\O (stereo not drawn)
*A* 8

*Q* Query: pKa; subject: `CN1CCN(C(=O)c2ccccc2)CC1`
*A* 6.78

*Q* Query: pKa; subject: `[NH3+]CC(=O)NCCc1c[nH]cn1`
*A* 6.76

*Q* Query: pKa; subject: `Nc1ccc2c(c1O)Cc1ccccc1-2`
*A* 4.82

*Q* Query: pKa; subject: COc1cc(S(C)=O)ccc1-c1nc2cnncc2[nH]1 (stereo not drawn)
*A* 3.81

*Q* Query: pKa; subject: `CCNCCCC(=O)[O-]`
*A* 11

*Q* Query: pKa; subject: `O=[N+]([O-])c1cc(CN2CCCCC2)c([O-])c2ccccc12`
*A* 10.7
